- TEST_SYSTEM: human CD40 on cells (human, UniProt P25942 21-277)
- Sequence (P25942 21-277 limits assumed): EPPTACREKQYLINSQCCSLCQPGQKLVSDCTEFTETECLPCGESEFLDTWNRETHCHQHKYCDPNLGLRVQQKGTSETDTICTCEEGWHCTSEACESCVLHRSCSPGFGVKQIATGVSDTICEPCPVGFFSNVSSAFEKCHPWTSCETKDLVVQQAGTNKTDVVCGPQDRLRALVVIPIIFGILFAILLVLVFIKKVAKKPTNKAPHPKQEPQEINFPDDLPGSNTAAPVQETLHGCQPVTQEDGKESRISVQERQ
- ASSAY_COMMENT: cell-based or functional assay
EXPERIMENTAL_ENDPOINT: human B cell proliferation, no crosslinking, EC50

In: Return human B cell proliferation, no crosslinking, EC50 (reported value) for this binder: 35F11 (antibody, IgG4, V domains shown, also called 4868-1) VH: QVQLVESGGGVVQPGRSLRLSCAASGFTLSSYGMHWVRQAPGKGLEWVAVIWYDGSNKYYADSVKGRVTISRDNSKNTLYLQMNSLRAEDTAVYYCTRDGRNYVYFDNWGQGTLVTVSS VL: QSALTQPRSVSGSPGQSVTISCTGTSSDVGGYIFVSWYQQHPGKAPKLMIYDVSKRPSGVPDRFSGSKSVNTASLTISGLQAEDETDYYCCSYAGNYTYVFGTGTKVTVLG
Out: > 16.7 nM

Proceeding to the next binder to report its human B cell proliferation, no crosslinking, EC50.
In: Could you please provide reported human B cell proliferation, no crosslinking, EC50 for 33H6 (antibody, IgG4, V domains shown, also called 4883-1) VH: QVQLVQSGAEVKKPGASVKVSCKASGYTFPGYYMYWLRQAPGQGLEWMGWINPDSGDTNYAQKFQGRVTMTRDTSISTAFMELSRLRSDDTAVYYCAREKPRYFDSFYYYLMDVWGQGTTVTVSS VL: DIQMTQSPSSLSASVGDRVTITCRAGQNISRHLNWYQQNPGKAPKVLIHPASSLPSGVPSRFSGSGSGTDFSLTISSLQPEDFGTYFCQQSYSTPPTFGGGTKVELKR ? Thanks!
Out: > 16.7 nM
